meta.source: patent US20240287178A1

molecular target: T1, rat Unc5B coupled to GFP, in transfected porcine aortic endothelial cells (PAECs) (rat, UniProt O08722 27-945); experiment: immunoprecipitation from PAECs transfected with rat Unc5B-GFP, 1 h after antibody treatment
T1 construct: whole, on cells; also called rat Unc5B-GFP; not shown: GFP

[
  {
    "binder": "antibody 1101 (antibody, V domains shown) VH: EVQLVESGGGLVQPGGSLRLSCAASGFNIYYSSMHWVRQAPGKGLEWVAYISSSYGYTYYADSVKGRFTISADTSKNTAYLQMNSLRAEDTAVYYCARGYYAGYFGIDYWGQGTLVTVSS VL: DIQMTQSPSSLSASVGDRVTITCRASQSVSSAVAWYQQKPGKAPKLLIYSASSLYSGVPSRFSGSRSGTDFTLTISSLQPEDFATYYCQQAGWPITFGQGTKVEIKR",
    "binding result": "binds"
  },
  {
    "binder": "antibody 1096 (antibody, V domains shown) VH: EVQLVESGGGLVQPGGSLRLSCAASGFNLYYSSIHWVRQAPGKGLEWVASIYSYSSYTSYADSVKGRFTISADTSKNTAYLQMNSLRAEDTAVYYCARSYAMDYWGQGTLVTVSS VL: DIQMTQSPSSLSASVGDRVTITCRASQSVSSAVAWYQQKPGKAPKLLIYSASSLYSGVPSRFSGSRSGTDFTLTISSLQPEDFATYYCQQGFAPFTFGQGTKVEIKR",
    "binding result": "binds"
  },
  {
    "binder": "antibody 1095 (antibody, human IgG2, kappa, V domains shown) VH: EVQLVESGGGLVQPGGSLRLSCAASGFNISYSSIHWVRQAPGKGLEWVAYIYPYYGYTYYADSVKGRFTISADTSKNTAYLQMNSLRAEDTAVYYCARGYGIDYWGQGTLVTVSS VL: DIQMTQSPSSLSASVGDRVTITCRASQSVSSAVAWYQQKPGKAPKLLIYSASSLYSGVPSRFSGSRSGTDFTLTISSLQPEDFATYYCQQHYSLFTFGQGTKVEIKR",
    "binding result": "binds"
  }
]
